- RUN DESCRIPTION: S. cerevisiae RM11-1a growth modifiers, primary screen, strain RM11-1a, OD600, basal, 24 h (AID 1177);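 also: cultures grown under basal conditions with no added stressor; test concentration not given here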
- CONDITION INFO: OD600, 24 h, higher = more signal, called active from +8 up or from −8 down
Cut-off 0.4 on z-score, inclusive. At or above means t; below means f.

# example entries with known answers
C=C(CCCC)/C(=C/C[C@@H](OC(=O)c1ccncc1)c1ccc(OCCO)cc1)c1cc(C(=O)OC)ccc1OC	t
CC1(C)[C@@H]2CC(C(O)C3C=CC4C(=O)N(c5ccccc5)C(=O)C4N3Nc3ccc([N+](=O)[O-])cc3)=C[C@H]1C2 (some centres undefined)	f
NC(=O)[C@@H]1[C@H]2C(=O)O[C@H](c3ccccc3)[C@H](c3ccccc3)N2[C@H](c2ccc(O)cc2)[C@@]12C(=O)Nc1ccccc12	f
C[C@H]1C2[C@H](Cc3ccccc3)NC(=O)[C@]23C(=O)N[C@H](Cc2ccccc2)C(=O)N2CCC[C@H]2C(=O)NC/C=C\C/C=C/C3[C@@H]2O[C@]12C (some centres undefined)	f
C=CCN1C(=O)[C@]2(O[C@H](CCn3cc([C@H](O)c4ccccc4)nn3)[C@@H]([Si](C)(C)c3ccc(OC)cc3)[C@@H]2C)c2cc(N3CCC3=O)ccc21	t
CC(C)(C)OC(=O)CC[C@]1(C(=O)N2CCOCC2)N=C(c2ccc(OCCCO)cc2)O[C@H]1c1ccccc1N=[N+]=[N-]	f

In: # check: z-score of C=CCC(OC(C)=O)[C@@H]1[C@@H](N(Cc2ccc(-c3ccccc3)cc2)C(=O)Cc2ccc(OC)cc2)c2cc(OCCCO)ccc2N1C(=O)Cc1ccc2ccccc2c1 (some centres undefined) is greater than or equal to 0.4
Out: f

In: Dear colleague, could you confirm whether `CC(C)C(=C=CC[C@@H](O)c1ccc(OCCO)cc1)C[C@@H](O)COCc1ccccc1` has z-score at or above 0.4?
Out: f

In: For this compound, is measured z-score 0.4 or higher? O=C1OCCC/C=C\[C@H]2OC34C=CCN(Cc5ccccc5)C(=O)[C@H]3N(CCCO)C(=O)[C@@H]4C12 (some centres undefined)
Out: t

In: State whether the measured z-score reaches 0.4, counting equality as reaching it, for CN1C(=O)C2C=CC(C(O)c3ccccc3)N(N(c3ccccc3)c3ccccc3)C2C1=O (centres undefined)
Out: t

In: Please tell me: is the compound `COc1ccc(-c2cc3c(c(-c4ccc(Oc5ccccc5)cc4)n2)[Si](C(C)C)(C(C)C)OC3)cn1` at or over 0.4 in terms of z-score?
Out: t

In: Exam item: decide whether the reported z-score for `COC(=O)c1c(CC[C@@H](CO)NC(=O)NCCn2cc(C3(O)CCCC3)nn2)oc(C(C)=O)c1C(=O)OC` is at least 0.4.
Out: f

In: Hi, just wondering whether `C=CCNC(=O)[C@H]1[C@@H]2C(=O)O[C@@H](c3ccccc3)[C@@H](c3ccccc3)N2[C@@H](c2ccccc2OCCO)[C@]12C(=O)Nc1ccc(C#CCCO)cc12` shows z-score of 0.4 or higher.
Out: t

---

- Test system: Lefty1
- RUN DESCRIPTION: Lefty1 binders on small-molecule microarrays, primary screen, biochemical, small-molecule microarray, 635/667 nm fluorescence (AID 1139)
- CONDITION INFO: small-molecule microarray binding, fluorescence 635/667; higher = more signal
Please enter Y where composite z-score is greater than or equal to 0.1, and N where it is lower.

Example results:
COCCOC(=O)N1C(=O)[C@@]2(c3cc(C#CC4(O)CCCCCC4)ccc31)[C@H](c1ccc(OCCO)cc1)N1[C@H](c3ccccc3)[C@H](c3ccccc3)OC(=O)[C@H]1[C@@H]2C(=O)N1CCN(c2ncccn2)CC1	Y
COc1cccc(-c2cccc(=O)o2)c1	N
COC(=O)[C@@]1(Cc2ccc(OC)cc2)[C@@H]2C(=CC(=O)[C@H]2CC(=O)C(=O)N2CCCC2)CN1C(=O)c1ccccc1	N

--- query ---
In: Kindly determine if composite z-score recorded for CC(C)c1ccc(NN2C(C(O)c3ccc(B(O)O)cc3)C=CC3C(=O)N(c4ccccc4)C(=O)C32)cc1 (centres undefined) is above or exactly 0.1.
Out: Y
